Experiment: Cell viability (MTT assay)
Assay type: cell-based, human
Conditions: human, human fetal astrocytes, hASTRO
Protocol: In total, 10 × 10^5 U87MG human glioblastoma, patient-derived glioma cells 3054 and 3060, HEK293T human embryonic kidney, 4T1 murine mammary carcinoma, human fetal astrocytes cell lines were plated in their respective medium and treated for 72 h with our fluorescent probe 10 and 11, solubilized in DMSO in a final concentration of 10%. […] The viability of cells was measured using the 3-(4,5-dimethylthiazol-2-yl)-2,5-diphenyltetrazolium assay (MTT assay)[23].
QUANTITY MEASURED: viability at 72 h, 10 µM (%)
One number for each entry, in %.

Note to self: viability at 72 h, 10 µM recorded for `COc1cc(/C=C/C(O)=C/C(=O)/C=C/c2ccc(OCc3cn(CCOc4ccc(C=O)cc4)nn3)c(OC)c2)ccc1O` was 85.3
